# Tested on: phospho(Ser63)-c-jun in HK-2 cells
# test-description: Cell-Based Assay for JNK Inhibitors (in-cell ELISA, phospho(Ser63)-c-jun after TNFα)
# setup-conditions: HK-2 cells (human proximal tubule cells), 60 minutes compound, then 10 ng/mL TNFα for 30 minutes
pEC50: −log10 of the molar value.
measure: pEC50

Illustrative cases are given below, each with its answer.
1) O=C(NCc1cn(-c2ccccc2F)c2cc(F)ccc2c1=O)c1ccc(N2CCOCC2)nc1 [Example I-108]
4.33
2) O=C(NCc1cn(-c2ccccc2)c2cc(Cl)ccc2c1=O)c1ccc(-c2ncn[nH]2)cc1 [Example I-43]
4.00
3) Cn1cc(C(=O)NCc2cn(-c3ccccc3F)c3cc(F)ccc3c2=O)cn1 [Example I-104]
4.00

(P) COC(=O)c1c(CNC(=O)c2ccc(Cl)nc2)c(=O)c2ccc(F)cc2n1-c1ccccc1 [Example I-170]
(Q) O=C(NCc1cn(-c2ccccc2)c2cc(Cl)ccc2c1=O)c1cnc(N2CCC(CO)CC2)s1 [Example I-93]
(R) COC(=O)c1c(CNC(=O)c2ccncc2)c(=O)c2ccc(Cl)cc2n1-c1ccccc1 [Example I-136]
Hi! Can you put these in order of pEC50, lowest number first? Response field: labels, in requested order. Q, P, R
(Q: 4.00, P: 4.36, R: 5.10)

(a) COC(=O)c1c(CNC(=O)c2cccc(OC)c2)c(=O)c2ccc(Cl)cc2n1-c1ccccc1 [Example I-135]
(b) O=C(NCc1c(-c2ncco2)n(-c2ccccc2)c2ncccc2c1=O)c1ccc(N2CCC(CO)CC2)nc1 [Example I-12]
Hi there, can you help? I need to know whether a or b has lower measured pEC50. Mark your answer with the label of the selected entry. a
(a: 5.32, b: 5.60)
